system: Phaedon cochleariae; assay: Phaedon cochleariae - spray test; format: in vivo; details: 500 g/ha, Chinese cabbage leaf discs, after 7 days
As shown below, each of these compounds has a reported efficacy (beetle larvae killed) value.
measured.endpoint: efficacy (beetle larvae killed) (%)

compound	tgt	units.text	result.value
Cc1cc(F)c(N2C(=O)CN(C(=O)Nc3cccc(Cl)c3)C2=O)cc1[S+]([O-])CC(F)(F)F (stereo not drawn)	Phaedon cochleariae	%	83
Cc1cc(Cl)c(N2C(=O)CN(C(=O)Nc3cccc(CC(F)(F)F)c3)C2=O)cc1[S+]([O-])CC(F)(F)F (racemic)	Phaedon cochleariae	%	100
Cc1cc(C)c([S+]([O-])CC(F)(F)F)cc1N1C(=O)CN(C(=O)Nc2ccccn2)C1=O (racemic)	Phaedon cochleariae	%	100
Cc1cc(Cl)c(N2C(=O)CN(C(=O)Nc3cccc(Cl)c3)C2=O)cc1[S+]([O-])CC(F)(F)F (racemic)	Phaedon cochleariae	%	100
Cc1cc(F)c(N2C(=O)CN(C(=O)NC(C)(C)C)C2=O)cc1SCC(F)(F)F	Phaedon cochleariae	%	100
Cc1cc(C)c(N2C(=O)CN(C(=O)NCC(F)(F)F)C2=O)cc1SCC(F)(F)F	Phaedon cochleariae	%	100
Cc1cc(Cl)c(N2C(=O)CN(C(=O)NCC(F)(F)F)C2=O)cc1SCC(F)(F)F	Phaedon cochleariae	%	83
Cc1cc(F)c(N2C(=O)CN(C(=O)Nc3cccc(CC(F)(F)F)c3)C2=O)cc1[S+]([O-])CC(F)(F)F (stereo not drawn)	Phaedon cochleariae	%	83
CCC(C)NC(=O)N1CC(=O)N(c2cc(SCC(F)(F)F)c(C)cc2F)C1=O (stereo not drawn)	Phaedon cochleariae	%	100
Cc1cc(F)c(N2C(=O)CN(C(=O)NCC(F)(F)F)C2=O)cc1SCC(F)(F)F	Phaedon cochleariae	%	83
O=C(NCC(F)(F)F)N1CC(=O)N(c2cc(SCC(F)(F)F)c(Cl)cc2Cl)C1=O	Phaedon cochleariae	%	83
Cc1cc(F)c(N2C(=O)C(C)N(C(=O)NCC(F)(F)F)C2=O)cc1SCC(F)(F)F (racemic)	Phaedon cochleariae	%	100
CCC(C)(C)NC(=O)N1CC(=O)N(c2cc(SCC(F)(F)F)c(C)cc2F)C1=O	Phaedon cochleariae	%	83
Cc1cc(F)c(N2C(=O)CN(C(=O)Nc3cccc(CC(F)(F)F)c3)C2=O)cc1SCC(F)(F)F	Phaedon cochleariae	%	83
Cc1cc(F)c(N2C(=O)CN(C(=O)Nc3ccc(F)cc3)C2=O)cc1SCC(F)(F)F	Phaedon cochleariae	%	100

====

assay: log P determination by HPLC on reversed-phase columns (C 18), analogous to OECD Guideline 117; type: physicochemical; details: reversed-phase HPLC column (C 18), pH 7.8, HPLC, neutral range, pH 7.8, 0.001 molar aqueous ammonium hydrogencarbonate and acetonitrile; read-out: log P(neutral)
measured.endpoint: chromatographic logP

molecule	measured.endpoint	result.value
Cc1cc(F)c(N2C(=O)CN(C(=O)NCC(C)C)C2=O)cc1[S+]([O-])CC(F)(F)F (stereo not shown)	chromatographic logP	2.66
CCNC(=O)N1C(=O)N(c2cc([S+]([O-])CC(F)(F)F)c(C)cc2F)C(=O)C1C (stereo not shown)	chromatographic logP	2.39
Cc1cc(F)c(N2C(=O)CNC2=S)cc1SCC(F)(F)F	chromatographic logP	2.5
Cc1cc(F)c(N2C(=O)CN(C(=O)N3CCOCC3)C2=O)cc1[S+]([O-])CC(F)(F)F (stereo not shown)	chromatographic logP	1.75

====

Test system: Meloidogyne incognita
Experiment: Meloidogyne incognita - test
Type: in vivo
Conditions: 20 ppm, lettuce, after 14 days
Experimental: 2. Meloidogyne incognita—Test Solvent: 125.0 parts by weight of acetone To produce a suitable preparation of active compound, 1 part by weight of active compound is mixed with the stated amount of solvent and the concentrate is diluted with water to the desired concentration. […] After 14 days, the nematicidal efficacy in % is determined by the formation of galls. […]
As shown below, each of these molecules has a reported nematicidal efficacy (formation of galls) value.
measured.endpoint: nematicidal efficacy (formation of galls) (%)

molecule	result.value
Cc1cc(C)c([S+]([O-])CC(F)(F)F)cc1N1C(=O)CN(C(=O)Nc2ccc(F)cc2)C1=O (racemic) [compound 99]	90
CCNC(=O)N1CC(=O)N(c2cc([S+]([O-])CC(F)(F)F)c(C)cc2F)C1=O (centres unmarked) [compound 9]	100
Cc1cc(Cl)c(N2C(=O)CN(C(=O)Nc3cccc(Cl)c3)C2=O)cc1[S+]([O-])CC(F)(F)F (racemic) [compound 72]	90
O=C(Nc1ccc(F)cc1)N1CC(=O)N(c2cc(SCC(F)(F)F)c(Cl)cc2Cl)C1=O [compound 108]	90
Cc1cc(F)c(N2C(=O)CN(C(=O)NC(C)C)C2=O)cc1[S+]([O-])CC(F)(F)F (centres unmarked) [compound 10]	100
Cc1cc(F)c(N2C(=O)CN(C(=O)NCC(F)(F)F)C2=O)cc1[S+]([O-])CC(F)(F)F (centres unmarked) [Ex. No. 36]	90
Cc1cc(F)c(N2C(=O)CN(C(=O)N(C)C3CC3)C2=O)cc1[S+]([O-])CC(F)(F)F (centres unmarked) [compound 131]	100
Cc1cc(F)c(N2C(=O)CN(C(=O)NC(C)C)C2=O)cc1SCC(F)(F)F [Ex. No. 7]	90
Cc1cc(F)c(N2C(=O)CN(C(=O)Nc3cccc(Cl)c3)C2=O)cc1[S+]([O-])CC(F)(F)F (centres unmarked) [compound 48]	90
Cc1cc(F)c(N2C(=O)CN(C(=O)NC(C)(C)C)C2=O)cc1[S+]([O-])CC(F)(F)F (racemic) [compound 68]	90
CCC(C)(C)NC(=O)N1CC(=O)N(c2cc(SCC(F)(F)F)c(C)cc2F)C1=O [compound 101]	90
Cc1cc(Cl)c(N2C(=O)CN(C(=O)Nc3cccc(CC(F)(F)F)c3)C2=O)cc1[S+]([O-])CC(F)(F)F (racemic) [compound 71]	90
Cc1cc(F)c(N2C(=O)CN(C(=O)N3CCC(F)(F)CC3)C2=O)cc1SCC(F)(F)F [compound 129]	100
Cc1cc(F)c(N2C(=O)CN(C(=O)N(C)CC(C)C)C2=O)cc1[S+]([O-])CC(F)(F)F (centres unmarked) [compound 126]	100
Cc1cc(F)c(N2C(=O)CN(C(=O)N(C)C)C2=O)cc1SCC(F)(F)F [compound 130]	100
Cc1cc(F)c(N2C(=O)CN(C(=O)N3CCOCC3)C2=O)cc1[S+]([O-])CC(F)(F)F (centres unmarked) [Ex. No. 125]	100
Cc1cc(F)c(N2C(=O)CN(C(=O)NC(C)(C)C)C2=O)cc1SCC(F)(F)F [compound 54]	100
Cc1cc(F)c(N2C(=O)CN(C(=O)Nc3ccccn3)C2=O)cc1SCC(F)(F)F [compound 78]	100
CCNC(=O)N1CC(=O)N(c2cc(SCC(F)(F)F)c(C)cc2F)C1=O [compound 6]	90
Cc1cc(C)c([S+]([O-])CC(F)(F)F)cc1N1C(=O)CN(C(=O)NC(C)C)C1=O (centres unmarked) [compound 23]	100
Cc1cc(F)c(N2C(=O)CN(C(=O)N3CCC(F)(F)CC3)C2=O)cc1[S+]([O-])CC(F)(F)F (centres unmarked) [compound 132]	100
Cc1cc(F)c(N2C(=O)CN(C(=O)NCc3ccccc3)C2=O)cc1[S+]([O-])CC(F)(F)F (centres unmarked) [compound 21]	90
Cc1cc(F)c(N2C(=O)CN(C(=O)NC3CC3)C2=O)cc1SCC(F)(F)F [Ex. No. 1]	90
CCC(C)NC(=O)N1CC(=O)N(c2cc([S+]([O-])CC(F)(F)F)c(C)cc2F)C1=O (centres unmarked) [compound 47]	100
Cc1cc(Cl)c(N2C(=O)CN(C(=O)NC3CC3)C2=O)cc1SCC(F)(F)F [compound 50]	90
Cc1cc(F)c(N2C(=O)CN(C(=O)N(C)C3CC3)C2=O)cc1SCC(F)(F)F [compound 121]	90
Cc1cc(F)c(N2C(=O)CN(C(=O)Nc3cccc(F)c3)C2=O)cc1SCC(F)(F)F [compound 42]	90
Cc1cc(F)c(N2C(=O)CN(C(=O)N3CCOCC3)C2=O)cc1SCC(F)(F)F [Ex. No. 122]	90
CCNC(=O)N1CC(=O)N(c2cc(SCC(F)(F)F)c(Cl)cc2Cl)C1=O [compound 103]	90
Cc1cc(F)c(N2C(=O)CN(C(=O)Nc3cccc(CC(F)(F)F)c3)C2=O)cc1[S+]([O-])CC(F)(F)F (centres unmarked) [compound 43]	100
Cc1cc(F)c(N2C(=O)CN(C(=O)Nc3cccnc3)C2=O)cc1[S+]([O-])CC(F)(F)F (centres unmarked) [compound 20]	100
Cc1cc(F)c(N2C(=O)CN(C(=O)N3CCS(=O)(=O)CC3)C2=O)cc1SCC(F)(F)F [compound 128]	100

These measurements were taken from patent US10206398B2.
